# target under test: CDK2/Cyclin E1 full length (Homo sapiens (Human))
# experimental protocol: CDK2/Cyclin E1 full length mobility shift assay
Entries are grouped by Ki into these classes: small value = under 0.4 nM, mid value = from 0.4 nM up to 0.7 nM, large value = 0.7 nM and over

- molecule: "CCCCNC(=O)O[C@H]1CC[C@@H](c2cc(NC(=O)Cc3ccno3)n[nH]2)C1"
  answer label: "large value"

Input: // return the class label for CCC1(NC(=O)O[C@@H]2CC[C@H](c3cc(NC(=O)Cc4cnc(OC)cn4)n[nH]3)C2)CC1
Output: small value

Input: Form field 'band' for COc1ccc(S(C)(=O)=O)c(CC(=O)Nc2cc([C@H]3CC[C@@H](OC(=O)NCCC(F)(F)F)C3)[nH]n2)c1
Output: small value

Input: Which of the defined bands does the recorded Ki of CC[C@H](C)NC(=O)O[C@@H]1CC[C@H](c2cc(NC(=O)Cc3cnc(C(F)(F)F)cn3)n[nH]2)C1 sit within?
Output: small value
